src = ChEMBL document CHEMBL1131619

Record set of IC50 for target or system Peptidyl-prolyl cis-trans isomerase FKBP1A (Homo sapiens).
The answer is to be given in nM; state only the numeric part.

molecule="CC[C@@H]1/C=C(\\C)C[C@H](C)C[C@H](OC)[C@H]2O[C@@](O)(C(=O)C(=O)N3CCCC[C@H]3C(=O)O[C@H](/C(C)=C/C3CC[C@@H](OCC(=O)Nc4ccncc4)[C@H](OC)C3)[C@H](C)[C@@H](O)CC1=O)[C@H](C)C[C@@H]2OC (some centres not stated)" target_desc="Peptidyl-prolyl cis-trans isomerase FKBP1A (Homo sapiens)" outcome_measure=IC50 readout_unit=nM observed_result=3.2

Continue with the molecule presented below.
IN: Query (molecule): CC[C@@H]1/C=C(\C)C[C@H](C)C[C@H](OC)[C@H]2O[C@@](O)(C(=O)C(=O)N3CCCC[C@H]3C(=O)O[C@H](/C(C)=C/C3CC[C@@H](OCC(=O)Nc4ccc(N5CCOCC5)cc4)[C@H](OC)C3)[C@H](C)[C@@H](O)CC1=O)[C@H](C)C[C@@H]2OC (some centres not stated) ; field requested: IC50
OUT: 19

###

# Species: Homo sapiens
# measurement_description: Inhibition of human mixed lymphocyte response (MLR)
# Assay type: functional
Consider the following molecules and their measured IC50 readings.
The answer is to be given in nM; state only the numeric part.

Consider the reported IC50 for these molecules:
molecule="CC[C@@H]1/C=C(\\C)C[C@H](C)C[C@H](OC)[C@H]2O[C@@](O)(C(=O)C(=O)N3CCCC[C@H]3C(=O)O[C@H](/C(C)=C/C3CC[C@@H](OCC(=O)NCc4ccccc4)[C@H](OC)C3)[C@H](C)[C@@H](O)CC1=O)[C@H](C)C[C@@H]2OC (stereo partly drawn)" readout_unit=nM observed_result=0.79
molecule="CC[C@@H]1/C=C(\\C)C[C@H](C)C[C@H](OC)[C@H]2O[C@@](O)(C(=O)C(=O)N3CCCC[C@H]3C(=O)O[C@H](/C(C)=C/C3CC[C@@H](OCC(=O)N(C)CCc4ccccc4)[C@H](OC)C3)[C@H](C)[C@@H](O)CC1=O)[C@H](C)C[C@@H]2OC (stereo partly drawn)" readout_unit=nM observed_result=0.64
molecule="CC[C@@H]1/C=C(\\C)C[C@H](C)C[C@H](OC)[C@H]2O[C@@](O)(C(=O)C(=O)N3CCCC[C@H]3C(=O)O[C@H](/C(C)=C/C3CC[C@@H](OCC(=O)Nc4ccc(F)cc4)[C@H](OC)C3)[C@H](C)[C@@H](O)CC1=O)[C@H](C)C[C@@H]2OC (stereo partly drawn)" readout_unit=nM observed_result=0.03
molecule="CC[C@@H]1/C=C(\\C)C[C@H](C)C[C@H](OC)[C@H]2O[C@@](O)(C(=O)C(=O)N3CCCC[C@H]3C(=O)O[C@H](/C(C)=C/C3CC[C@@H](OCC(=O)Nc4ccncc4)[C@H](OC)C3)[C@H](C)[C@@H](O)CC1=O)[C@H](C)C[C@@H]2OC (stereo partly drawn)" readout_unit=nM observed_result=0.16
molecule="CC[C@@H]1/C=C(\\C)C[C@H](C)C[C@H](OC)[C@H]2O[C@@](O)(C(=O)C(=O)N3CCCC[C@H]3C(=O)O[C@H](/C(C)=C/C3CC[C@@H](OCC(=O)Nc4cccc(C(F)(F)F)c4)[C@H](OC)C3)[C@H](C)[C@@H](O)CC1=O)[C@H](C)C[C@@H]2OC (stereo partly drawn)" readout_unit=nM observed_result=0.14

IN: Query (molecule): CC[C@@H]1/C=C(\C)C[C@H](C)C[C@H](OC)[C@H]2O[C@@](O)(C(=O)C(=O)N3CCCC[C@H]3C(=O)O[C@H](/C(C)=C/C3CC[C@@H](OCC(=O)O)[C@H](OC)C3)[C@H](C)[C@@H](O)CC1=O)[C@H](C)C[C@@H]2OC (stereo partly drawn) ; field requested: IC50
OUT: 140

IN: Query (molecule): C=CC[C@@H]1/C=C(\C)C[C@H](C)C[C@H](OC)[C@H]2O[C@@](O)(C(=O)C(=O)N3CCCC[C@H]3C(=O)O[C@H](/C(C)=C/[C@@H]3CC[C@@H](O)[C@H](OC)C3)[C@H](C)[C@@H](O)CC1=O)[C@H](C)C[C@@H]2OC [TACROLIMUS ANHYDROUS] ; field requested: IC50
OUT: 0.48

IN: Query (molecule): CC[C@@H]1/C=C(\C)C[C@H](C)C[C@H](OC)[C@H]2O[C@@](O)(C(=O)C(=O)N3CCCCC3C(=O)O[C@H](/C(C)=C/C3CC[C@@H](OCC(=O)OCc4ccccc4)[C@H](OC)C3)[C@H](C)[C@@H](O)CC1=O)[C@H](C)C[C@@H]2OC (stereo partly drawn) ; field requested: IC50
OUT: 7.62
